assay: qHTS assay for cell viability of HEK293 cells (AID 743288); details: ATP luminescence (CellTiter-Glo), 18 h, stronger effect = lower value; note: % is set by controls: 0 for no effect and ±100 for the full control effect; nearly all actives have a fitted effect of over 50% in size
Records with an inconclusive call do not appear.
Entries and their measured max response follow.
Number only, in %; omit the unit.

INPUT: Would you kindly share the measured max response for CC(C)OS(C)(=O)=O ?
OUTPUT: -1.94

INPUT: Would you kindly share the measured max response for O=[N+]([O-])CCO ?
OUTPUT: -4.92

INPUT: Would you kindly share the measured max response for Nc1cc(Cl)ccc1Cl ?
OUTPUT: 7.64

Continuing:
INPUT: Would you kindly share the measured max response for CCCCOCC1CO1 (centres undefined) ?
OUTPUT: -19.5

INPUT: Would you kindly share the measured max response for CC(C)(Cl)[N+](=O)[O-] ?
OUTPUT: 8.03

INPUT: Would you kindly share the measured max response for Oc1cc(Cl)c(Cl)c(Cl)c1Cl ?
OUTPUT: -11.3

INPUT: Would you kindly share the measured max response for N#CCCC#N ?
OUTPUT: -2.73

INPUT: Would you kindly share the measured max response for O=S(=O)(O)F ?
OUTPUT: -2.74

INPUT: Would you kindly share the measured max response for Brc1cccc(-c2ccccc2)c1 ?
OUTPUT: 8.7

* * *

target: Muscarinic acetylcholine receptor M1 (Rattus norvegicus); test: qHTS Assay for Antagonists of Acetylcholine Muscarinic M1 Receptor: Measurement of IP-One Response (AID 944); conditions: CHO-M1 cells, IP-One HTRF, antagonist mode; series mostly up to 46.1 µM; note: nearly all actives have a fitted effect of over 75% in size; note: potency is the fitted concentration of half-maximal effect
Results filed as inconclusive are left out. Activity calls are given as the source filed them. Calls come from the whole dose curve; as a rule, active = well fitted inhibition curve with a large enough effect; inconclusive = small, poorly fitted or top-dose-only effect; inactive = no such curve, though single readings can be large or run the other way.
endpointLabel: Potency

Example results:
INPUT: Would you kindly share the measured Potency for O=C(O)[C@H]1CCN1 ?
OUTPUT: inactive

INPUT: Would you kindly share the measured Potency for C[C@@H](Cc1ccc(O)cc1)NC[C@@H](O)c1cc(O)cc(O)c1 ?
OUTPUT: inactive

INPUT: Would you kindly share the measured Potency for CC(C)N[C@@H](C)Cc1ccc(I)cc1 ?
OUTPUT: 14.1 µM (active)

INPUT: Would you kindly share the measured Potency for CCN(CC)c1ncnc2c1ncn2[C@@H]1O[C@@H](COP(=O)(O)OP(=O)(O)C(Br)(Br)P(=O)(O)O)[C@H](O)[C@@H]1O ?
OUTPUT: inactive

Proceed to the following item.
INPUT: Would you kindly share the measured Potency for C[C@@H]1Cc2cc3c(cc2C(c2ccc(N)cc2)=NN1)OCO3 ?
OUTPUT: inactive

* * *

molecular target: Thyroid hormone receptor beta (Homo sapiens); test: qHTS assay for small molecule antagonists of thyroid hormone receptor beta signaling (AID 588547); conditions: TR-UAS-bla HEK293, beta-lactamase ratio, antagonist mode, 18 h;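 note: cells stimulated with 0.4 nM T3 agonist during compound exposure; % is set by controls: 0 for no effect and ±100 for the full control effect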
Records with an inconclusive call do not appear. Active and inactive are the calls of the source. Calls follow the shape of the dose curve; as a rule, active = well fitted inhibition curve with a large enough effect in the signal ratio, with a control signal flat (not every such curve was filed as active); inconclusive = small, poorly fitted or top-dose-only effect, or effect the other way, or a change in a side signal; inactive = flat fitted curve, though single readings scatter; the % refers to the signal ratio.
endpointLabel: activity change % (negative = inhibition)

Example results:
INPUT: Would you kindly share the measured activity change % (negative = inhibition) for CN(C)c1ccccc1 ?
OUTPUT: -1.14% (inactive)

INPUT: Would you kindly share the measured activity change % (negative = inhibition) for O=C(O)c1cc(Cl)ccc1Cl ?
OUTPUT: 12.5% (inactive)

INPUT: Would you kindly share the measured activity change % (negative = inhibition) for CC(C)(OOC(C)(C)c1ccccc1)c1ccccc1 ?
OUTPUT: 6.91% (inactive)

INPUT: Would you kindly share the measured activity change % (negative = inhibition) for O=[N+]([O-])c1cccc(CCl)c1 ?
OUTPUT: -16.3% (inactive)

Continuing:
INPUT: Would you kindly share the measured activity change % (negative = inhibition) for CCOS(C)(=O)=O ?
OUTPUT: -1.09% (inactive)

INPUT: Would you kindly share the measured activity change % (negative = inhibition) for O=C(O)C(Cl)(Cl)Br ?
OUTPUT: -3.52% (inactive)

INPUT: Would you kindly share the measured activity change % (negative = inhibition) for O=C(O)CCl ?
OUTPUT: -0.364% (inactive)

INPUT: Would you kindly share the measured activity change % (negative = inhibition) for c1ccc(NNc2ccccc2)cc1 ?
OUTPUT: 8.59% (inactive)

INPUT: Would you kindly share the measured activity change % (negative = inhibition) for Oc1c(Cl)c(Cl)cc(Cl)c1Cl ?
OUTPUT: 23.1% (inactive)

INPUT: Would you kindly share the measured activity change % (negative = inhibition) for N#CC(Br)Br ?
OUTPUT: 17% (inactive)

INPUT: Would you kindly share the measured activity change % (negative = inhibition) for CN(C)C(=O)Nc1ccc(Cl)cc1 ?
OUTPUT: -0.766% (inactive)

* * *

tested on: HIV-1 nucleocapsid protein NCp7 (binding to TG oligonucleotide); assay: HIV Nucleocapsid (AID 346); details: HIV-1 NC / fluorescein-TGTGTGTG probe, fluorescence polarization;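 note: potency is the fitted concentration of half-maximal effect; potency is for inhibitors that block NC binding and lower polarization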
Active and inactive are the calls of the source. How the calls were made is not given here.
The reply should be one of these categories: active, inactive

Worked set:
INPUT: Call for entry Cc1cccc(CNc2ncncc2-c2cccc(NS(C)(=O)=O)c2)c1 :
OUTPUT: inactive

INPUT: Call for entry COc1cccc(Nc2ncc3nc(CCc4ccccc4)c(=O)n(C4CC4)c3n2)c1 :
OUTPUT: inactive

INPUT: Call for entry Cc1cnc(CNc2ncnc3ccc(-c4ccc(C(=O)N(C)C)cc4)cc23)cn1 :
OUTPUT: inactive

INPUT: Call for entry CCNc1ncc2nc(-c3cccs3)c(=O)n(-c3ccc(OC)cc3)c2n1 :
OUTPUT: active

INPUT: Call for entry O=C(c1cc(C(F)(F)F)cc(C(F)(F)F)c1)N1CCC2(CCCN(c3ncccn3)C2)CC1 :
OUTPUT: inactive

INPUT: Call for entry COc1ccc(C(=O)N2CCC3(CCN(Cc4ccccc4OC)CC3)CC2)cc1 :
OUTPUT: inactive

Continuing:
INPUT: Call for entry COc1ccc(-n2c(=O)c(-c3ccc(Cl)cc3)nc3cnc(N4CCNCC4)nc32)cc1 :
OUTPUT: inactive

INPUT: Call for entry CS(=O)(=O)Nc1cccc(-c2ccc3ncnc(Nc4ccccc4)c3c2)c1 :
OUTPUT: inactive

* * *

test: qHTS assay for small molecule disruptors of the mitochondrial membrane potential - 1 hr assay (AID 651754); conditions: series mostly up to 92.2 µM; note: nearly all actives have a fitted effect of over 35% in size
Records with an inconclusive call do not appear. Calls of active or inactive are those of the source. Calls come from the whole dose curve.
The reply should be one of these categories: true = active, false = inactive

Worked set:
INPUT: Call for entry OCCCCO :
OUTPUT: false

INPUT: Call for entry CCCCNC(=O)n1c(NC(=O)OC)nc2ccccc21 :
OUTPUT: false

INPUT: Call for entry C=C(Cl)CCl :
OUTPUT: false

INPUT: Call for entry Oc1c(Cl)c(Cl)cc(Cl)c1Cl :
OUTPUT: true

INPUT: Call for entry O=C(Cl)OCc1ccccc1 :
OUTPUT: false

INPUT: Call for entry Nc1cc(Cl)cc(C(=O)O)c1Cl :
OUTPUT: false

Continuing:
INPUT: Call for entry CC(C)CC(C)N (stereo not given) :
OUTPUT: false

INPUT: Call for entry O=[N+]([O-])/C=C/c1ccccc1 :
OUTPUT: false

INPUT: Call for entry CCCC[N+](=O)[O-] :
OUTPUT: false

INPUT: Call for entry O=[N+]([O-])c1c(Cl)c(Cl)c(Cl)c(Cl)c1Cl :
OUTPUT: false

INPUT: Call for entry Oc1cc(Cl)cc(Cl)c1 :
OUTPUT: true

* * *

assay: AP1 Signaling Pathway (AID 357); details: ME-180 (cervical carcinoma) AP-1-bla reporter, EGF-induced, beta-lactamase ratio, 5 h; at 7.69 µM (top of the series) unless noted;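 note: ME-180 reporter cells stimulated with EGF at its EC50 level; % is set by controls: 0 for no effect and ±100 for the full control effect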
Records with an inconclusive call do not appear. Calls of active or inactive are those of the source. Calls follow the shape of the dose curve; as a rule, active = well fitted curve in either direction with a large enough effect (not every such curve was filed as active); inconclusive = small, poorly fitted or top-dose-only effect, or another doubt; inactive = flat fitted curve, though single readings scatter.
endpointLabel: activity change, negative = inhibition

Example results:
INPUT: Would you kindly share the measured activity change, negative = inhibition for CCNC(=O)[C@@H]1O[C@@H](n2cnc3c(N)ncnc32)[C@@H](O)[C@H]1O ?
OUTPUT: -6.61% [at 38 µM] (inactive)

INPUT: Would you kindly share the measured activity change, negative = inhibition for NC(=O)CN1C[C@@H](O)CC1=O ?
OUTPUT: 2.98% [at 38 µM] (inactive)

INPUT: Would you kindly share the measured activity change, negative = inhibition for C1C[C@@H]2CN(CCCN3CCOCC3)[C@@H](C1)O2 ?
OUTPUT: -6.14% (inactive)

INPUT: Would you kindly share the measured activity change, negative = inhibition for O[C@H](CN1CC1)[C@@H](O)CN1CC1 ?
OUTPUT: 10.5% (inactive)

Continuing:
INPUT: Would you kindly share the measured activity change, negative = inhibition for c1ccc2c(c1)Sc1ccccc1N2C[C@H]1CN2CCC1CC2 ?
OUTPUT: 24.9% (inactive)

* * *

Biological target: Mitogen-activated protein kinase 10 (Mus musculus) (UniProt Q61831)
Test: JNK3 AlphaScreen Assay (AID 530);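 note: kinase came from lysate of stimulated human HepG2 cells; signal reports phosphorylation of biotinylated GST-cJun 1-79 at Ser73 with 10 µM ATP; % is set by controls: 0 for no effect and ±100 for the full control effect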
Settings: JNK3 lysate, c-Jun phosphorylation; series mostly up to 57.1 µM
Description: NIH Chemical Genomics Center [NCGC] NIH Molecular Libraries Screening Centers Network [MLSCN] The c-jun N-terminal kinase (JNK) family are serine/threonine protein kinases that phosphorylate c-jun, a component of the transcription factor protein-1 (AP-1). […] A homogeneous AlphaScreen is developed to measure the activity of JNK3. […] The phosphorylation of a biotinylated c-jun substrate by JNK3 can be detected with an antibody raised against phosphorylated c-jun. […]
Results filed as inconclusive are left out. The source made the active and inactive calls. The call rests on the fitted dose curve; in most records, active means well fitted curve in either direction with a large enough effect (not every such curve was filed as active); inconclusive means small, poorly fitted or top-dose-only effect, or another doubt; inactive means flat fitted curve, though single readings scatter.
endpointLabel: activity change, negative = inhibition

INPUT: Would you kindly share the measured activity change, negative = inhibition for O=[As](O)(O)c1ccc(Cc2ccc([As](=O)(O)O)cc2)cc1 ?
OUTPUT: -5.31% [at 11.4 µM] (inactive)

Proceed to the following item.
INPUT: Would you kindly share the measured activity change, negative = inhibition for N[C@H](Cc1c[nH]c2ccccc12)P(=O)(O)O ?
OUTPUT: 4.66% [at 11.4 µM] (inactive)
